tested-on: T1, human amylin 3(a) receptor (human calcitonin receptor co-expressed with RAMP-3) (human, UniProt P30988 25-474; O60896 24-148, limits assumed)
T1 sequence (looked up) 1: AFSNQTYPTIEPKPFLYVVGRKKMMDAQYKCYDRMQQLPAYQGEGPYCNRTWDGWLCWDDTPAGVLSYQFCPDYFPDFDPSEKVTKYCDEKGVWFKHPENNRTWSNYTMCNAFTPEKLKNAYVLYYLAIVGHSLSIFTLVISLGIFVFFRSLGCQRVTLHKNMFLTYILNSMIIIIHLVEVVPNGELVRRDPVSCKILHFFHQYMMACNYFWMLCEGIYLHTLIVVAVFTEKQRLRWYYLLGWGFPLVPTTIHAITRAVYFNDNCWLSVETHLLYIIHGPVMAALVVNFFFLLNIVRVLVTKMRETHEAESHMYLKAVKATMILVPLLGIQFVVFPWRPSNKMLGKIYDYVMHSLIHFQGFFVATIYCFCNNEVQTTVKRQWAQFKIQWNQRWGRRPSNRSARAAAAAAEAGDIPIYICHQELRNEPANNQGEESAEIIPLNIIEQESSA
T1 sequence (looked up) 2: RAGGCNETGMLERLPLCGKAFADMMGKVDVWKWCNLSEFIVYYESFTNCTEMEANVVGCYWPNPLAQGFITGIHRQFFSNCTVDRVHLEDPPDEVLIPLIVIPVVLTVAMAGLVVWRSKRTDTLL
assay-method-text: cell-based or functional assay
Numbered stars: 1 amine (or outer) side, 2 acyl side, 3 side chain; on linkers, the order of the positions; unused ones are H or OH. Ends that are not written are not given here. * marks the point of attachment. C20 diacid = O=C(O)CCCCCCCCCCCCCCCCCCC(=O)*; C18 diacid = O=C(O)CCCCCCCCCCCCCCCCC(=O)*; C16 diacid = O=C(O)CCCCCCCCCCCCCCC(=O)*; γGlu = O=C(O)[C@H](CCC(=O)[*:2])N[*:1]; C14 diacid = O=C(O)CCCCCCCCCCCCC(=O)*
property: hAmylin-R funct. EC50 (pM)

{C16 diacid-γGlu}-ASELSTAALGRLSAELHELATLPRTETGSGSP-NH2 [[N-terminal(C16 diacid-gGlu), des1, 30S, 31G]mimylin] = 18

[I] {C20 diacid-γGlu}-ASGLSTAALGRLSAELHELATYPRTETGSGSP-NH2 [[N-terminal(C20 diacid-gGlu), des1, 4G, 23Y, 30S, 31G]mimylin]
[II] {C18 diacid}-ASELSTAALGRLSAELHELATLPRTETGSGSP-NH2 [[N-terminal(C18 diacid), des1, 30S, 31G]mimylin]
[III] ASGLSTATLGRLSQELHELQTYPRTETGSGTY (ends and bridges not checked) [[des1, 4G, 9T, 15Q, 21Q, 23Y, 30S, 31G, 32T, 33Y]mimylin]
## Task Arrange by hAmylin-R funct. EC50 (pM), high to low. Your reply should list the labels following the order given in the request.
## Result I, II, III
(I: 38 pM, II: 18 pM, III: 5 pM)

[A] {C20 diacid}-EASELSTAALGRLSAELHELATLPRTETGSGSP-NH2 [[N-terminal(C20 diacid), 30S, 31G]mimylin]
[B] {C14 diacid-γGlu}-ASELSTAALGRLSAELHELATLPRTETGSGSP-NH2 [[N-terminal(C14 diacid-gGlu), des1, 30S, 31G]mimylin]
## Task Which of the two gives a bigger number for hAmylin-R funct. EC50 (pM): A or B ? Refer to your chosen item by its label in the answer.
## Result A
(A: 11 pM, B: 6 pM)

[P] {C20 diacid-γGlu}-ASELSTAALGRLSAELHELATYPRTETGSGSY-OH [[N-terminal(C20 diacid-gGlu), des1, 23Y, 30S, 31G, 33Y, C-terminal(-)]mimylin]
[Q] ASELTTAVLGRLSAELHELATLPRTETGTGTP-NH2 [[des1, 6T, 9V, 30T, 31G, 32T]mimylin]
## Task Which of the two gives a bigger number for hAmylin-R funct. EC50 (pM): P or Q ? Refer to your chosen item by its label in the answer.
## Result P

This collection of values is drawn from patent US20160272683A1.
